# Tested on: NCI-H2087
# ASSAY_NAME: relative viability (nuclei count vs DMSO), 5 days (fraction); higher = more cells survive
# CONDITIONS_USED: first compound 0.5 µM
Catalogue of relative viability readings, one per entry.
Simply state the number, no unit and no words.

IN: Tell me measured relative viability for CC1(C)CCC(c2ccc(Cl)cc2)=C(CN2CCN(c3ccc(C(=O)NS(=O)(=O)c4ccc(N[C@H](CCN5CCOCC5)CSc5ccccc5)c(S(=O)(=O)C(F)(F)F)c4)cc3)CC2)C1 [Navitoclax] + NC(=O)Nc1cc(-c2cccc(F)c2)sc1C(=O)N[C@H]1CCCNC1 [AZD7762] (partner 0.2 µM) please.
OUT: 1.41

IN: Give relative viability for CC1(C)CCC(c2ccc(Cl)cc2)=C(CN2CCN(c3ccc(C(=O)NS(=O)(=O)c4ccc(N[C@H](CCN5CCOCC5)CSc5ccccc5)c(S(=O)(=O)C(F)(F)F)c4)cc3)CC2)C1 [Navitoclax] + Cc1cc(Nc2cc(N3CCN(C)CC3)nc(Sc3ccc(NC(=O)C4CC4)cc3)n2)n[nH]1 [Tozasertib] (partner 0.1 µM)
OUT: 0.294

* * *

# System: LCLC-103H
# ASSAY_NAME: relative viability (nuclei count vs DMSO), 5 days (fraction); higher = more cells survive
# CONDITIONS_USED: first compound 0.253 µM
# key: entry, value: relative viability
Just the number, please, no unit after it.

Examples with their reported relative viability follow.
COMPOUND	relative viability
Oc1nc(-c2ccc(C(F)(F)F)cc2)nc2c1CSCC2 [XAV939] + CC(=O)Nc1cccc(-n2c(=O)n(C3CC3)c(=O)c3c(Nc4ccc(I)cc4F)n(C)c(=O)c(C)c32)c1 [Trametinib] (partner 0.02 µM)	0.641
C=C1C(=O)O[C@@H](CCCCCCCC)[C@@H]1C(=O)O [C-75] + CS(=O)(=O)N1CCN(Cc2cc3nc(-c4cccc5[nH]ncc45)nc(N4CCOCC4)c3s2)CC1 [Pictilisib] (partner 1 µM)	0.641
C=C1C(=O)O[C@@H](CCCCCCCC)[C@@H]1C(=O)O [C-75] + CC(=O)Nc1cccc(-n2c(=O)n(C3CC3)c(=O)c3c(Nc4ccc(I)cc4F)n(C)c(=O)c(C)c32)c1 [Trametinib] (partner 0.02 µM)	0.703

IN: Specify measured relative viability for Oc1nc(-c2ccc(C(F)(F)F)cc2)nc2c1CSCC2 [XAV939] + COc1cccc2cc(-c3nc([C@H]4CC[C@H](C(=O)O)CC4)n4ncnc(N)c34)[nH]c12 [OSI-027] (partner 0.5 µM) .
OUT: 0.443

IN: Recall and state the measured relative viability for Oc1nc(-c2ccc(C(F)(F)F)cc2)nc2c1CSCC2 [XAV939] + CS(=O)(=O)N1CCN(Cc2cc3nc(-c4cccc5[nH]ncc45)nc(N4CCOCC4)c3s2)CC1 [Pictilisib] (partner 1 µM) .
OUT: 0.483

* * *

# Test system: NCI-H2023
# ASSAY_NAME: relative viability (nuclei count vs DMSO), 5 days (fraction); higher = more cells survive
# CONDITIONS_USED: first compound 2.53 µM
OUTCOME_MEASURE: relative viability
Quick one: just the number, no unit, thanks!

Example cases with answers are listed next.
COMPOUND	TESTED_SYSTEM	OUTCOME_MEASURE	EXPERIMENTAL_VALUE
C=C1C(=O)O[C@@H](CCCCCCCC)[C@@H]1C(=O)O [C-75] + CS(=O)(=O)N1CCN(Cc2cc3nc(-c4cccc5[nH]ncc45)nc(N4CCOCC4)c3s2)CC1 [Pictilisib] (partner 1 µM)	NCI-H2023	relative viability	0.311
C=C1C(=O)O[C@@H](CCCCCCCC)[C@@H]1C(=O)O [C-75] + C[C@@H](Oc1cc(-c2cnn(C3CCNCC3)c2)cnc1N)c1c(Cl)ccc(F)c1Cl [Crizotinib] (partner 1 µM)	NCI-H2023	relative viability	0.444
C=C1C(=O)O[C@@H](CCCCCCCC)[C@@H]1C(=O)O [C-75] + COc1cc2c(Oc3ccc(NC(=O)C4(C(=O)Nc5ccc(F)cc5)CC4)cc3F)ccnc2cc1OCCCN1CCOCC1 [Foretinib] (partner 0.25 µM)	NCI-H2023	relative viability	0.943
Oc1nc(-c2ccc(C(F)(F)F)cc2)nc2c1CSCC2 [XAV939] + CS(=O)(=O)N1CCN(Cc2cc3nc(-c4cccc5[nH]ncc45)nc(N4CCOCC4)c3s2)CC1 [Pictilisib] (partner 1 µM)	NCI-H2023	relative viability	0.158
Oc1nc(-c2ccc(C(F)(F)F)cc2)nc2c1CSCC2 [XAV939] + CC(=O)c1c(C)c2cnc(Nc3ccc(N4CCNCC4)cn3)nc2n(C2CCCC2)c1=O [Palbociclib] (partner 0.5 µM)	NCI-H2023	relative viability	0.295

IN: Tell me its relative viability given C=C1C(=O)O[C@@H](CCCCCCCC)[C@@H]1C(=O)O [C-75] + CC(=O)Nc1cccc(-n2c(=O)n(C3CC3)c(=O)c3c(Nc4ccc(I)cc4F)n(C)c(=O)c(C)c32)c1 [Trametinib] (partner 0.02 µM) as the entry.
OUT: 0.209

IN: # return recorded relative viability for input C=C1C(=O)O[C@@H](CCCCCCCC)[C@@H]1C(=O)O [C-75] + N=C(N)NC(=N)NCCc1ccccc1 [Phenformin] (partner 250 µM)
OUT: 0.384

IN: Input Oc1nc(-c2ccc(C(F)(F)F)cc2)nc2c1CSCC2 [XAV939] + N=C(N)NC(=N)NCCc1ccccc1 [Phenformin] (partner 250 µM) , output reported relative viability.
OUT: 0.402

IN: Could you please provide reported relative viability for C=C1C(=O)O[C@@H](CCCCCCCC)[C@@H]1C(=O)O [C-75] + CC(C)C[C@H](NC(=O)[C@H](Cc1ccccc1)NC(=O)c1cnccn1)B(O)O [Bortezomib] (partner 0.002 µM) ? Thanks!
OUT: 0.843

IN: Specify measured relative viability for Oc1nc(-c2ccc(C(F)(F)F)cc2)nc2c1CSCC2 [XAV939] + O=C(CCCCCCC(=O)Nc1ccccc1)NO [Vorinostat] (partner 1 µM) .
OUT: 0.461
